These measurements were taken from the antibiotic and cytotoxicity screens of Wong et al. (2023).

# Tested on: HSkMC
# PROCEDURE SUMMARY: cytotoxicity call (relative viability < 0.9)
# TEST PARAMETERS: 10 µM
Among all 39,000 compounds or so, about 1,500 (3.8%) were called active. For the sample, actives were picked, then their nearest neighbours and some compounds at random.
Outcome codes: active, inactive

>  <COMPOUND>
COc1ccc(S(=O)(=O)Nc2ccc3c(c2)C(=O)N([C@@H](C)CO)C[C@@H](C)[C@@H](CN(C)Cc2ccncc2)O3)cc1

>  <CLASS NAME>
inactive

$$$$
>  <COMPOUND>
C[C@H](CO)N1C[C@H](C)[C@H](CN(C)S(=O)(=O)c2cn(C)cn2)Oc2c(NC(=O)Nc3ccc4c(c3)OCO4)cccc2C1=O

>  <CLASS NAME>
inactive

$$$$
>  <COMPOUND>
C[C@@H]1CN([C@@H](C)CO)C(=O)c2cc(NS(=O)(=O)c3ccc(F)cc3)ccc2O[C@H]1CN(C)Cc1ccc(Oc2ccccc2)cc1

>  <CLASS NAME>
inactive

$$$$
>  <COMPOUND>
CCCN1C[C@H](C)[C@@H](O)[C@](C)(O)[C@@H](CC)OC(=O)[C@H](C)[C@@H](O[C@H]2C[C@@](C)(OC)[C@@H](O)[C@H](C)O2)[C@H](C)[C@@H](O[C@@H]2O[C@H](C)C[C@H](N(C)C)[C@H]2O)[C@](C)(O)C[C@H]1C

>  <CLASS NAME>
inactive

$$$$
>  <COMPOUND>
C[C@@H]1CN([C@H](C)CO)C(=O)Cc2cc(NC(=O)Cc3cn(C)c4ccccc34)ccc2O[C@H]1CN(C)Cc1ccc(-c2ccccc2)cc1

>  <CLASS NAME>
active

$$$$
>  <COMPOUND>
C[C@H](CO)N1C[C@H](C)[C@@H](CN(C)CC2CC2)Oc2c(NC(=O)Nc3cccc4ccccc34)cccc2C1=O

>  <CLASS NAME>
inactive

$$$$
>  <COMPOUND>
C[C@H]1CN([C@@H](C)CO)C(=O)Cc2cc(NC(=O)Cc3cn(C)c4ccccc34)ccc2O[C@H]1CN(C)Cc1ccc(C(F)(F)F)cc1

>  <CLASS NAME>
inactive

$$$$
>  <COMPOUND>
C[C@@H]1CN([C@@H](C)CO)S(=O)(=O)c2ccc(-c3cncnc3)cc2O[C@H]1CN(C)C(=O)C1CCCCC1

>  <CLASS NAME>
inactive

$$$$
>  <COMPOUND>
C[C@@H]1CN([C@H](C)CO)C(=O)Cc2cc(NC(=O)CCN3CCOCC3)ccc2O[C@@H]1CN(C)Cc1ccccc1

>  <CLASS NAME>
inactive

$$$$
>  <COMPOUND>
COc1ccc(S(=O)(=O)N(C)C[C@@H]2Oc3ccc(NC(=O)CCCN(C)C)cc3C(=O)N([C@H](C)CO)C[C@@H]2C)cc1

>  <CLASS NAME>
inactive

$$$$
>  <COMPOUND>
CC(C)NC(=O)Nc1cccc2c1O[C@@H](CN(C)S(=O)(=O)c1ccccc1)[C@H](C)CN([C@H](C)CO)C2=O

>  <CLASS NAME>
inactive

$$$$
>  <COMPOUND>
C[C@@H]1CN([C@@H](C)CO)C(=O)c2cc(NS(=O)(=O)c3ccc(F)cc3)ccc2O[C@@H]1CN(C)Cc1ccc(Oc2ccccc2)cc1

>  <CLASS NAME>
active

$$$$
>  <COMPOUND>
C[C@@H]1CN([C@H](C)CO)C(=O)Cc2cc(NC(=O)Cc3cn(C)c4ccccc34)ccc2O[C@H]1CN(C)Cc1ccc(C(F)(F)F)cc1

>  <CLASS NAME>
inactive

$$$$
>  <COMPOUND>
COc1ccc(NC(=O)Nc2ccc3c(c2)C(=O)N([C@H](C)CO)C[C@H](C)[C@H](CN(C)C(=O)Nc2c(C)noc2C)OCCCC[C@H](C)O3)cc1

>  <CLASS NAME>
inactive

$$$$
>  <COMPOUND>
C1CCC(C(CC2CCCCN2)C2CCCCC2)CC1.O=C(O)C=CC(=O)O (stereo not given)

>  <CLASS NAME>
active

$$$$
>  <COMPOUND>
C[C@@H]1CN([C@H](C)CO)C(=O)Cc2cc(NC(=O)Nc3ccc4c(c3)OCO4)ccc2O[C@@H]1CN(C)S(C)(=O)=O

>  <CLASS NAME>
inactive

$$$$
>  <COMPOUND>
CCCc1cc(-c2nc(-c3ccc(C)cc3)cs2)ccn1

>  <CLASS NAME>
inactive

$$$$
>  <COMPOUND>
COc1ccc(NC(=O)N(C)C[C@H]2OCCCC[C@@H](C)Oc3ccc(NS(=O)(=O)c4ccc(Cl)cc4)cc3C(=O)N([C@@H](C)CO)C[C@H]2C)cc1

>  <CLASS NAME>
inactive

$$$$
>  <COMPOUND>
CNC(=O)N1CCC(C(N)=O)CC1

>  <CLASS NAME>
inactive

$$$$
>  <COMPOUND>
O=C(CN1CCOCC1)NCC[C@@H]1CC[C@@H](NC(=O)Cc2ccccn2)[C@H](CO)O1

>  <CLASS NAME>
inactive

$$$$
>  <COMPOUND>
C[C@H]1CN([C@@H](C)CO)C(=O)Cc2cc(NC(=O)Cc3cn(C)c4ccccc34)ccc2O[C@@H]1CN(C)Cc1ccc(C(F)(F)F)cc1

>  <CLASS NAME>
active

$$$$
>  <COMPOUND>
C[C@H](CO)N1C[C@H](C)[C@H](CN(C)Cc2ccc(Cl)c(Cl)c2)OCCCC[C@H](C)Oc2ccc(NC(=O)NC3CCCCC3)cc2C1=O

>  <CLASS NAME>
inactive

$$$$
>  <COMPOUND>
C[C@H]1CN([C@@H](C)CO)C(=O)Cc2cc(NC(=O)Cc3cn(C)c4ccccc34)ccc2O[C@@H]1CN(C)Cc1ccc(Oc2ccccc2)cc1

>  <CLASS NAME>
inactive

$$$$
>  <COMPOUND>
C[C@H](CO)N1C[C@H](C)[C@H](CN(C)Cc2ccc(Oc3ccccc3)cc2)Oc2ccc(NC(=O)Cc3cn(C)c4ccccc34)cc2CC1=O

>  <CLASS NAME>
inactive

$$$$
>  <COMPOUND>
O=C(O)CC[C@H]1CCCCN1

>  <CLASS NAME>
inactive

$$$$
>  <COMPOUND>
COc1ccc(OCC(=O)NCC(=O)O)cc1

>  <CLASS NAME>
inactive

$$$$
>  <COMPOUND>
C[C@@H]1CN([C@@H](C)CO)C(=O)Cc2cc(NC(=O)Cc3cn(C)c4ccccc34)ccc2O[C@H]1CN(C)Cc1ccc(-c2ccccc2)cc1

>  <CLASS NAME>
inactive

$$$$
>  <COMPOUND>
C[C@H](CO)N1C[C@H](C)[C@H](CN(C)S(C)(=O)=O)Oc2ccc(NC(=O)CCN3CCOCC3)cc2C1=O

>  <CLASS NAME>
inactive

$$$$
>  <COMPOUND>
C[C@H]1CN([C@@H](C)CO)S(=O)(=O)c2ccc(C#CCC3CCCC3)cc2O[C@@H]1CN(C)C(=O)c1cnccn1

>  <CLASS NAME>
inactive

$$$$
>  <COMPOUND>
C[C@H]1CN([C@@H](C)CO)C(=O)c2cc(NS(=O)(=O)c3ccc(F)cc3)ccc2O[C@@H]1CN(C)Cc1ccc(Oc2ccccc2)cc1

>  <CLASS NAME>
inactive

$$$$

---

# Test system: HSkMC (human skeletal muscle cells)
# PROCEDURE SUMMARY: cytotoxicity call (relative viability < 0.9)
# TEST PARAMETERS: 10 µM
In all, about 39,000 compounds went through this assay and about 1,500 (3.8%) were called active. The sample as a whole holds a higher share of actives than the screen did.
Classes used: T (active), F (inactive)

>  <STRUCTURE>
C[C@@H]1CN([C@@H](C)CO)C(=O)c2cc(NC(=O)C3CCCCC3)ccc2O[C@@H](C)CCCCO[C@@H]1CN(C)C(=O)c1ccncc1

>  <CLASS NAME>
F

$$$$
>  <STRUCTURE>
CC(C)NC(=O)N[C@H]1C=C[C@H](CC(=O)NCCN2CCCC2)O[C@H]1CO

>  <CLASS NAME>
F

$$$$
>  <STRUCTURE>
COc1ccc(CN(C)C[C@@H]2OCCCC[C@@H](C)Oc3ccc(NC(=O)NC(C)C)cc3C(=O)N([C@H](C)CO)C[C@H]2C)cc1

>  <CLASS NAME>
F

$$$$
>  <STRUCTURE>
C[C@H]1CN([C@@H](C)CO)C(=O)Cc2cc(NC(=O)CCCCCC(=O)Nc3ccccc3N)ccc2O[C@@H]1CN(C)Cc1ccc(Cl)c(Cl)c1

>  <CLASS NAME>
F

$$$$
>  <STRUCTURE>
C[C@@H]1CN([C@H](C)CO)C(=O)c2cc(/C=C/c3ccccc3)cnc2O[C@H]1CN(C)C(=O)c1cnccn1

>  <CLASS NAME>
F

$$$$
>  <STRUCTURE>
CCSc1nnc2c(=O)[nH]c(=O)[nH]c2n1

>  <CLASS NAME>
F

$$$$
>  <STRUCTURE>
COc1cc2nc(N3CCCN(Cc4ccccc4)CC3)nc(Nc3ccc(F)c(Cl)c3)c2cc1OC

>  <CLASS NAME>
T

$$$$
>  <STRUCTURE>
CNC[C@H]1OCCCC[C@@H](C)Oc2ccc(NC(=O)Nc3cccc4ccccc34)cc2C(=O)N([C@H](C)CO)C[C@@H]1C

>  <CLASS NAME>
F

$$$$
>  <STRUCTURE>
O=C(C1=C[C@@H](c2ccc3c(c2)OCO3)C[C@@H](OCCCCO)O1)N1CCN(Cc2ccc3c(c2)OCO3)CC1

>  <CLASS NAME>
F

$$$$
>  <STRUCTURE>
Cc1ccc(S(=O)(=O)N2C[C@@H](O)COC[C@H]3O[C@@H](CC(=O)N[C@@H]4CCN(Cc5ccccc5)C4)CC[C@@H]32)cc1

>  <CLASS NAME>
F

$$$$
>  <STRUCTURE>
COc1ccc(NC(=O)Nc2ccc3c(c2)C(=O)N([C@@H](C)CO)C[C@H](C)[C@H](CN(C)C(=O)C2CCCCC2)OCCCC[C@H](C)O3)cc1

>  <CLASS NAME>
F

$$$$
>  <STRUCTURE>
CC(C)C#Cc1cnc2c(c1)C(=O)N([C@@H](C)CO)C[C@H](C)[C@@H](CN(C)C(=O)c1ccc3c(c1)OCO3)O2

>  <CLASS NAME>
F

$$$$
>  <STRUCTURE>
CN(C)[C@@H](CN)c1cccn1C

>  <CLASS NAME>
F

$$$$
>  <STRUCTURE>
COc1ccc2nc3cc(Cl)ccc3c(Nc3cc(CN4CCCC4)c(O)c(CN4CCCC4)c3)c2n1.O=P(O)(O)O.O=P(O)(O)O.O=P(O)(O)O.O=P(O)(O)O

>  <CLASS NAME>
F

$$$$
>  <STRUCTURE>
COc1cc2nc(N3CCN(C(=O)c4ccco4)CC3)nc(N)c2cc1OC.Cl

>  <CLASS NAME>
F

$$$$
>  <STRUCTURE>
COCC(=O)N(C)C[C@H]1Oc2cc(C#Cc3cccnc3)ccc2S(=O)(=O)N([C@H](C)CO)C[C@@H]1C

>  <CLASS NAME>
F

$$$$
